target: RSV protein G (recombinant G protein) (respiratory syncytial virus (RSV), strain not stated); assay: SPR (Biacore), Fab on recombinant antigen
Field: kon. Provide a value for each of the binders that follow.
Give bare numbers, in M⁻¹ s⁻¹.

Sample answers from the record:
# BINDER, UNIT, kon
records = [
    ("Fab fragment of antibody clone 816 (Fab) VH: EVQLLESGGGLVQPGGSLRLSCVASGFTFSTYAMTWVRQAPGKGLEWVSVIRASGDSEIYADSVRGRFTISRDNSKNTVFLQMDSLRVEDTAVYFCANIGQRRYCSGDHCYGHFDYWGQGTLVTVSS light: DIVMTQSPLSLPVTPGEPASISCRSSQSLLHSDGRYYVDWYLQKPGQSPHLLIYLASNRASGVPDRFTGSGSGTDFTLKISRVEAEDVGVYYCMQGLHTPWTFGQGTKVDIKRTVAAPSVFIFPPSDEQLKSGTASVVCLLNNFYPREAKVQWKVDNALQSGNSQESVTEQDSKDSTYSLSSTLTLSKADYEKHKVYACEVTHQGLSSPVTKSFNRGEC", "M⁻¹ s⁻¹", "2.02e+06"),
    ("Fab fragment of antibody clone 853 (Fab) VH: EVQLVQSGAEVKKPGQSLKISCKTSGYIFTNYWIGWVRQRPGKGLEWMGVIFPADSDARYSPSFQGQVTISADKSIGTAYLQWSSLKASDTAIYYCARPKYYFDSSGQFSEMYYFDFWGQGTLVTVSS light: EIVLTQSPGTLSLSPGERATLSCRASQSVSSNYLAWYQQKPGQAPRLLIYGASSRAAGMPDRFSGSGSGTDFTLTISRLEPEDFAVYYCQQYGNSPLTFGGGTEVEIKRTVAAPSVFIFPPSDEQLKSGTASVVCLLNNFYPREAKVQWKVDNALQSGNSQESVTEQDSKDSTYSLSSTLTLSKADYEKHKVYACEVTHQGLSSPVTKSFNRGEC", "M⁻¹ s⁻¹", "1.77e+06"),
]

# query: kon of entry Fab fragment of antibody clone 859 (Fab) VH: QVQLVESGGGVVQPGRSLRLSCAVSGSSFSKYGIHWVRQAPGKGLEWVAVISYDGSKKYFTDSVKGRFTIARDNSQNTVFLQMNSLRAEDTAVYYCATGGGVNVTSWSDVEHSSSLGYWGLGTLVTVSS light: DIQMTQSPSSLSASVGDRVTITCRASQGIRNYLAWYQQKPGKVPKLLVFAASTLQSGVPSRFSGSGSGTDFTLTISSLQPEDVATYYCQRYNSAPLTFGGGTKVEIKRTVAAPSVFIFPPSDEQLKSGTASVVCLLNNFYPREAKVQWKVDNALQSGNSQESVTEQDSKDSTYSLSSTLTLSKADYEKHKVYACEVTHQGLSSPVTKSFNRGEC
380000
